The reported numbers originate from paper PMC8222333.

assayedSystem: dAsCas12a S542R (Acidaminococcus sp., UniProt U2UMQ6 1-1307, S542R;D908A;E993A;D1235A)
protocol: Spec-seq (native PAGE EMSA with sequencing of bound and unbound); 25 mM Tris-HCl pH 7.4, 150 mM KCl, 5 mM MgCl2, 10% glycerol, 1 mM DTT, 40 ng/uL salmon sperm DNA; 400 nM Cas12a, 480 nM crRNA, 50 nM library, 37 C 1 h; native PAGE at room temperature; high values mean tight binding;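 note: relative affinity from the bound to unbound sequence frequency ratio in Spec-seq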
statedConditions: protein: recombinant
Record form. Attribute: binding signal. Fill in for each entry.
Write the number in lnKA without appending the unit.

Ask | What value of binding signal has been reported for the following binder? GCAA (dsDNA) DNA 1: GCTATCTAGTGCTCAGTACGCACTGGCAAAGGAAACTTCTGGCAGGACCAGGTCATGAGATCGGAAGAGCACACGTCTGAACTCCAGTCA DNA 2: TGACTGGAGTTCAGACGTGTGCTCTTCCGATCTCATGACCTGGTCCTGCCAGAAGTTTCCTTTGCCAGTGCGTACTGAGCACTAGATAGC RNA: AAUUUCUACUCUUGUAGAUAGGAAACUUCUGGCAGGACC
Reply | -8.78

Ask | What value of binding signal has been reported for the following binder? AGGG (dsDNA) DNA 1: GCTATCTAGTGCTCAGTACGCACTGAGGGAGGAAACTTCTGGCAGGACCAGGTCATGAGATCGGAAGAGCACACGTCTGAACTCCAGTCA DNA 2: TGACTGGAGTTCAGACGTGTGCTCTTCCGATCTCATGACCTGGTCCTGCCAGAAGTTTCCTCCCTCAGTGCGTACTGAGCACTAGATAGC RNA: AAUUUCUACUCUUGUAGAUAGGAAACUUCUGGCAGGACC
Reply | -8.44

Ask | What value of binding signal has been reported for the following binder? TGGG (dsDNA) DNA 1: GCTATCTAGTGCTCAGTACGCACTGTGGGAGGAAACTTCTGGCAGGACCAGGTCATGAGATCGGAAGAGCACACGTCTGAACTCCAGTCA DNA 2: TGACTGGAGTTCAGACGTGTGCTCTTCCGATCTCATGACCTGGTCCTGCCAGAAGTTTCCTCCCACAGTGCGTACTGAGCACTAGATAGC RNA: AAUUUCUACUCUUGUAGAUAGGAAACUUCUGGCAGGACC
Reply | -8.57

Ask | What value of binding signal has been reported for the following binder? AACC (dsDNA) DNA 1: GCTATCTAGTGCTCAGTACGCACTGAACCAGGAAACTTCTGGCAGGACCAGGTCATGAGATCGGAAGAGCACACGTCTGAACTCCAGTCA DNA 2: TGACTGGAGTTCAGACGTGTGCTCTTCCGATCTCATGACCTGGTCCTGCCAGAAGTTTCCTGGTTCAGTGCGTACTGAGCACTAGATAGC RNA: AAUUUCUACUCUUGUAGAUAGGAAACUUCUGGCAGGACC
Reply | -7.9

Ask | What value of binding signal has been reported for the following binder? GAGG (dsDNA) DNA 1: GCTATCTAGTGCTCAGTACGCACTGGAGGAGGAAACTTCTGGCAGGACCAGGTCATGAGATCGGAAGAGCACACGTCTGAACTCCAGTCA DNA 2: TGACTGGAGTTCAGACGTGTGCTCTTCCGATCTCATGACCTGGTCCTGCCAGAAGTTTCCTCCTCCAGTGCGTACTGAGCACTAGATAGC RNA: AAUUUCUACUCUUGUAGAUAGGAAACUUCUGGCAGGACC
Reply | -8.75
